Tested on: tumor cells from medulloblastoma developed from mice with deficiency in Patched1 gene
METHOD DESCRIPTION: MB assay: survival of medulloblastoma tumor cells by MTT after 48 hours
Type: cell-based
STUDY CONDITIONS: Mus musculus, tumor cells treated 48 hours, cell survival by MTT
pIC50: −log10 of the molar value.
pIC50 listing for selected molecules.

Known results for molecules:
COc1ccc2c(c1)c(SC(C)(C)C)c(CC(C)(C)c1nnn(C)n1)n2Cc1ccc(Cl)cc1 | 5.00 to 5.30
COC(=O)C(C)(C)Cc1c(C(=O)CC(C)(C)C)c2cc(OC)ccc2n1Cc1ccc(Cl)cc1 | < 4.70
COc1ccc2c(c1)nc(C(C)c1ccc(C(=O)O)cc1)n2Cc1ccccc1Cl (stereo not drawn) | < 4.70
COC(=O)Cc1ccc(C(C)c2nc3cc(OC)ccc3n2Cc2ccccc2Cl)cc1 (stereo not drawn) | 4.70 to 5.00
COc1ccc2c(c1)cc(C(C)c1ccc(CC(C)C)cc1)n2Cc1cccc(Cl)c1 (stereo not drawn) | < 4.70
CC(C)(Cc1c(C(=O)c2ccc(Cl)cc2)c2ccc(O)cc2n1CC1CCC1)C(=O)O | < 4.70

Record request: pIC50 value, item COc1ccc2c(c1)nc(C(C)c1ccc(CC(=O)O)cc1)n2Cc1ccccc1Cl (stereo not drawn)
< 4.70

Quick one: pIC50 of CCOC(=O)CCc1c(SC(C)(C)C)c2cc(C(C)C)ccc2n1Cc1ccc(Cl)cc1 ?
< 4.70

Given the entry COc1ccc2c(c1)nc(-c1ccc(CC(C)C)cc1)n2Cc1ccccc1Cl , report its measured pIC50.
4.70 to 5.00

----------
Reported IC50 is given for each of the following compounds.
Test system: tumor cells from medulloblastoma developed from mice with deficiency in Patched1 gene
METHOD DESCRIPTION: MB assay: survival of medulloblastoma tumor cells by MTT after 48 hours
Format: cell-based
STUDY CONDITIONS: Mus musculus, tumor cells treated 48 hours, cell survival by MTT

// known answers, use as guide
CC(C)Cc1ccc(C(C)c2cc3cc(O)ccc3n2Cc2cccc(Cl)c2)cc1 (stereo not shown) | 1 to 5 µM
COc1ccc2c(c1)c(SC(C)(C)C)c(CC(C)(C)c1nnnn1C)n2Cc1ccc(Cl)cc1 | 5 to 10 µM
COc1ccc2c(c1)c(SC(C)(C)C)c(CC(C)(C)c1nc(C)co1)n2Cc1ccc(Cl)cc1 | > 20 µM

Now examine the next entry.
Field request: IC50 | item: CC(C)c1ccc2c(c1)c(S(=O)(=O)CC(C)(C)C)c(CC(C)(C)C(=O)O)n2Cc1ccc(Cl)cc1
10 to 20 µM

----------
Tested on: tumor cells from medulloblastoma developed from mice with deficiency in Patched1 gene
METHOD DESCRIPTION: MB assay: survival of medulloblastoma tumor cells by MTT after 48 hours
Type: cell-based
STUDY CONDITIONS: Mus musculus, tumor cells treated 48 hours, cell survival by MTT
pIC50: −log10 of the molar value.
QUANTITY KIND: pIC50

Below, each entry is followed by its recorded pIC50 result.
CCOC(=O)C(C)(C)Cc1c([S+]([O-])CC(C)(C)C)c2cc(C(C)C)ccc2n1Cc1ccc(Cl)cc1 (stereo not shown) | 4.70 to 5.00
CC(C)c1ccc2c(C(=O)c3ccc(Cl)cc3)c(CC(C)(C)C(=O)O)n(CC3CCC3)c2c1 | 5.00 to 5.30
COc1ccc2c(c1)c(C(=O)CC(C)(C)C)c(CC(C)(C)CO)n2Cc1ccc(Cl)cc1 | 5.00 to 5.30

Next, consider the following molecule.
Please tell me: pIC50 of CC(C)Cc1ccc(C(C)c2nc3cc(C(=O)O)ccc3n2Cc2ccccc2Cl)cc1 (stereo not shown) , system tumor cells from medulloblastoma developed from mice with deficiency in Patched1 gene?
4.70 to 5.00
